# credit: PubChem BioAssay AID624491

- Test system: D54 ERlucT glycosylation luciferase reporter, luminescence, 24 h
- test protocol: N-linked glycosylation inhibitors, luciferase reporter, dose response, D54 ERlucT cells, luminescence, cherry-picks (AID 624491);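 also: signal gain reflects blocked N-linked glycosylation of a luciferase reporter; actives raise luciferase signal so AC26 marks activators of the reporter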
metric: AC26

| structure | metric | result |
| --- | --- | --- |
| Cn1nc(-c2ccccc2)c(CSc2ccccc2Cl)c1Cl | AC26 | 6.12 µM |
| CN(C)CCCNc1c2c(nc3ccccc13)CCC2 | AC26 | 9.56 µM |
| CN(C)C(=O)c1cccc(-c2cnc3c(NC=O)cc(-c4ccccc4Cl)cn23)c1 | AC26 | 6.82 µM |
| COc1cc(C)c2sc3ccccc3c(=O)c2c1NCCN(C)C | AC26 | 0.468 µM |

====

- Test system: D54 ERlucT glycosylation luciferase reporter, luminescence, 24 h
- test protocol: N-linked glycosylation inhibitors, luciferase reporter, dose response, D54 ERlucT cells, luminescence, cherry-picks (AID 624491)

| structure | measured target | AC26 |
| --- | --- | --- |
| O=c1cc(N/N=C/c2ccccc2)[nH]c(=O)[nH]1 | D54 ERlucT glycosylation luciferase reporter, luminescence, 24 h | 14.4 µM |
| COc1cccc(N2[C@@H](CC(C)=O)c3ccc(/C=C/C(C)=O)cc3S2(=O)=O)c1 | D54 ERlucT glycosylation luciferase reporter, luminescence, 24 h | 3.28 µM |
| CC(C)/C=C1\CC/C(=C\c2cccnc2)C1=O | D54 ERlucT glycosylation luciferase reporter, luminescence, 24 h | 4.84 µM |
| COc1ccc(CNC(=O)C/C(C)=N/NC(=O)COc2ccc(C)cc2Br)cc1 | D54 ERlucT glycosylation luciferase reporter, luminescence, 24 h | 5.66 µM |

====

- Tested on: D54 ERlucT glycosylation luciferase reporter, luminescence, 24 h
- test protocol: N-linked glycosylation inhibitors, luciferase reporter, dose response, D54 ERlucT cells, luminescence, cherry-picks (AID 624491)
Readings of AC26 for the listed compounds
metric: AC26

| compound | result |
| --- | --- |
| CCC12CCC3c4ccc(O)cc4CCC3C1CC(O)C2O (configuration not stated) | 10 µM |
| CC1CC(C)CN(C(=O)/C=C/c2ccc([N+](=O)[O-])s2)C1 (configuration not stated) | 8.46 µM |
| COc1cc(-c2nc3ccc(N4CCN(C)CC4)cc3[nH]2)cc(OC)c1OC | 0.535 µM |
| Cc1ccc(C(=O)N/C(=C\c2cccs2)C(=O)NCCc2c[nH]c3ccccc23)cc1C | 4.86 µM |
| O=C(NCc1ccco1)C1CC(c2ccc(C(F)(F)F)cc2)=NO1 (configuration not stated) | 9.73 µM |
| CN(C)c1ccc(C(C[N+](=O)[O-])c2c(N)n(C)c(=O)n(C)c2=O)c(F)c1C#N (configuration not stated) | 3.3 µM |
| Cn1cccc1/C=C1\SC(=Nc2ccccc2)NC1=O | 1.15 µM |
| COc1ccc2sc3cccc(NCCN(C)C)c3c(=O)c2c1 | 4.53 µM |
| COc1ccccc1NC1=NC(c2ccc(Cl)cc2)N=C(N)N1 (configuration not stated) | 1.37 µM |
| COc1ccc(NC(=O)C2(C)Cc3c(-c4cccc(C(N)=O)c4)ccnc3O2)cc1 (configuration not stated) | 2.32 µM |
| Cc1ccc(/C=N/NC(=O)CCn2nc(C)cc2C)c(C)c1 | 5.51 µM |
| CC[C@H](C)C(=O)O[C@H]1CCC=C2C=C[C@H](C)[C@H](CC[C@@H]3C[C@@H](O)CC(=O)O3)[C@H]21 | 0.18 µM |
| O=C(C[C@@H]1C[C@H]2c3cc(NC(=O)c4cccnc4)ccc3O[C@H]2[C@H](CO)O1)NCc1ccc(Oc2ccccc2)cc1 | 8.78 µM |
| O=C(N/N=C/c1cccs1)c1cc(-c2cccc3ccccc23)n[nH]1 | 4.7 µM |
| COc1cccc(-c2nc(N3CCN(C)CC3)c3ccccc3n2)c1O | 3.61 µM |
| O=C(CCN1C(=O)/C(=C/c2cccs2)SC1=S)N1CCCCC1 | 1.22 µM |
| O=C(CCl)N1c2ccccc2Sc2c1ccc1ccccc21 | 0.257 µM |

====

- System: D54 ERlucT glycosylation luciferase reporter, luminescence, 24 h
- test protocol: N-linked glycosylation inhibitors, luciferase reporter, dose response, D54 ERlucT cells, luminescence, cherry-picks (AID 624491);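 also: signal gain reflects blocked N-linked glycosylation of a luciferase reporter; actives raise luciferase signal so AC26 marks activators of the reporter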
metric: AC26

| compound | result |
| --- | --- |
| CN(C)CCCN1C(=O)c2cccc3c([N+](=O)[O-])ccc(c23)C1=O | 169 nM |
| CCOC(=O)c1[nH]c(C)c(C(=O)Nc2ccc(C)c(F)c2)c1C | 5420 nM |
| C[C@@H](NC(=O)c1ncn2c1c(=O)[nH]c1ccc(Br)cc12)c1ccccc1 | 2060 nM |
| Cc1cc2nnc(SCC(=O)NCc3ccco3)n2c2ccccc12 | 1360 nM |
| CCc1ccc(N2C(=O)Nc3ccccc3C2(O)C(=O)N2CCN(c3ccccn3)CC2)cc1 (configuration not stated) | 625 nM |
| CCOC(=O)/C(=C\c1ccccc1)C(=O)c1cc(C(C)=O)c(Nc2ccccc2)s1 | 1150 nM |
| CNC(=O)c1cccn(Cc2cc(C(F)(F)F)cc(C(F)(F)F)c2)c1=O | 16000 nM |
| Cc1ccc(OCCN2C(=O)C(=O)c3cc(C)ccc32)cc1 | 2460 nM |
| c1cnc2nc3c4ccccc4c4ccccc4c3nc2c1 | 10200 nM |
| Cc1cc(C)nc(/N=C(\N)Nc2ccc(OCCC(C)C)cc2)n1 | 776 nM |
| COc1ccc(-c2[nH]nc(-c3ccccc3)c2-c2nc3ccccc3[nH]2)cc1 | 3900 nM |
| COc1ccc(C(=O)/C=C\c2ccc(NC(=O)c3cccs3)cc2)cc1 | 2000 nM |

====

Readings of AC26 for the listed compounds
- Test system: D54 ERlucT glycosylation luciferase reporter, luminescence, 24 h
- test protocol: N-linked glycosylation inhibitors, luciferase reporter, dose response, D54 ERlucT cells, luminescence, cherry-picks (AID 624491);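 also: signal gain reflects blocked N-linked glycosylation of a luciferase reporter; actives raise luciferase signal so AC26 marks activators of the reporter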
metric: AC26

| structure | result |
| --- | --- |
| COc1ccc(Nc2nc(-c3sc(C)nc3C)cs2)c(OC)c1 | 1240 nM |
| COc1ccc(C(=O)/C=C/c2ccc(-c3ccccc3)cc2)cc1CSCC(=O)O | 1480 nM |
| Cc1ccc2nc(/C(C#N)=C/c3cn[nH]c3-c3ccc(F)cc3)[nH]c2c1 | 1170 nM |
| O=C(C=Cc1ccccc1F)c1ccccc1 | 3230 nM |
| Cc1ccc(-n2nc(C)c(NC(=O)CCl)c2C)cc1C | 653 nM |
| COc1cc(-c2noc(C)c2/C=C/c2ccc(N)cc2)cc(OC)c1OC | 467 nM |
| Cc1ccc(-c2nc(C(=O)NCCCN(C)C)cc3c2[nH]c2ccccc23)cc1 | 4300 nM |
| Nc1cc2c3c(cccc3c1)C(=O)N(CCN1CCCC1)C2=O | 275 nM |
| Cc1cc(NS(=O)(=O)c2ccc(NC(=O)COc3c(C)cc(Br)cc3C)cc2)no1 | 550 nM |
| CCOC(=O)c1c(C)nc2c(c1-c1cc(OC)c(OC)c(OC)c1)C(=O)c1ccccc1-2 | 1560 nM |
| O=C(N/N=C/c1cccc(C(F)(F)F)c1)C1CCN(c2ncc(C(F)(F)F)cc2Cl)CC1 | 5890 nM |
| COc1ccc(OC)c(-c2cc(-c3cccnc3)nc(N)c2C#N)c1 | 2230 nM |
| CC1(C)Cc2c(c(N3CCOCC3)nc3snc(N)c23)CO1 | 502 nM |
| Cc1cnc(C(=O)Nc2ccc(OC(F)(F)F)cc2)cn1 | 9150 nM |
| Cc1ccc(S(=O)(=O)N(C)C[C@H]2Oc3ccc(NC(=O)C4CCCCC4)cc3C(=O)N([C@H](C)CO)C[C@H]2C)cc1 | 1140 nM |
| COc1ccc(OC)c(-c2nnc3n2N=C(c2ccc(OC)c(OC)c2)CS3)c1 | 4160 nM |
| COc1ccc2[nH]c(C(=O)N3CCN(Cc4ccccc4)CC3)cc2c1OC | 1130 nM |

====

- Test system: D54 ERlucT glycosylation luciferase reporter, luminescence, 24 h
- test protocol: N-linked glycosylation inhibitors, luciferase reporter, dose response, D54 ERlucT cells, luminescence, cherry-picks (AID 624491);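 also: signal gain reflects blocked N-linked glycosylation of a luciferase reporter; actives raise luciferase signal so AC26 marks activators of the reporter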
Readings of AC26 for the listed compounds

| compound | AC26 |
| --- | --- |
| O=C(CSc1nnc(-c2cc3ccccc3cc2O)n1Cc1ccco1)N1CCc2ccccc2C1 | 0.702 µM |
| O=C(Cc1ccc(-c2ccccc2)cc1)NCc1cccnc1 | 12.4 µM |
| Oc1ccc(CCNc2c3ccccc3nc3ccccc23)cc1O | 0.638 µM |
| Cc1cc(C(=O)N/N=C/c2c3ccccc3cc3ccccc23)n[nH]1 | 6.68 µM |
| CC(=O)Nc1cccc(-c2ccnc3c2CC(C)(C(=O)NCc2cccs2)O3)c1 (centres undefined) | 1.45 µM |
| CCc1ccc2nc3nc(C)cc(C)c3c(N)c2c1 | 2.81 µM |
| Cc1cc(C)c2sc(NC(=O)c3ccc([N+](=O)[O-])o3)nc2c1 | 6.64 µM |
| O=C1[C@@H]2Cc3c([nH]c4ccccc34)C(c3ccc([N+](=O)[O-])cc3)N2C(=O)CN1C1CC1 (some centres undefined) | 11.5 µM |
| CCOC(=O)C1=C(Cc2ccc(F)cc2)C(=O)c2ccccc2C1=O | 6.39 µM |
